Source listed as ChEMBL document CHEMBL1141082.

- target desc: Receptor tyrosine-protein kinase erbB-2 (Homo sapiens, UniProt P04626)
- Sequence (P04626 whole entry): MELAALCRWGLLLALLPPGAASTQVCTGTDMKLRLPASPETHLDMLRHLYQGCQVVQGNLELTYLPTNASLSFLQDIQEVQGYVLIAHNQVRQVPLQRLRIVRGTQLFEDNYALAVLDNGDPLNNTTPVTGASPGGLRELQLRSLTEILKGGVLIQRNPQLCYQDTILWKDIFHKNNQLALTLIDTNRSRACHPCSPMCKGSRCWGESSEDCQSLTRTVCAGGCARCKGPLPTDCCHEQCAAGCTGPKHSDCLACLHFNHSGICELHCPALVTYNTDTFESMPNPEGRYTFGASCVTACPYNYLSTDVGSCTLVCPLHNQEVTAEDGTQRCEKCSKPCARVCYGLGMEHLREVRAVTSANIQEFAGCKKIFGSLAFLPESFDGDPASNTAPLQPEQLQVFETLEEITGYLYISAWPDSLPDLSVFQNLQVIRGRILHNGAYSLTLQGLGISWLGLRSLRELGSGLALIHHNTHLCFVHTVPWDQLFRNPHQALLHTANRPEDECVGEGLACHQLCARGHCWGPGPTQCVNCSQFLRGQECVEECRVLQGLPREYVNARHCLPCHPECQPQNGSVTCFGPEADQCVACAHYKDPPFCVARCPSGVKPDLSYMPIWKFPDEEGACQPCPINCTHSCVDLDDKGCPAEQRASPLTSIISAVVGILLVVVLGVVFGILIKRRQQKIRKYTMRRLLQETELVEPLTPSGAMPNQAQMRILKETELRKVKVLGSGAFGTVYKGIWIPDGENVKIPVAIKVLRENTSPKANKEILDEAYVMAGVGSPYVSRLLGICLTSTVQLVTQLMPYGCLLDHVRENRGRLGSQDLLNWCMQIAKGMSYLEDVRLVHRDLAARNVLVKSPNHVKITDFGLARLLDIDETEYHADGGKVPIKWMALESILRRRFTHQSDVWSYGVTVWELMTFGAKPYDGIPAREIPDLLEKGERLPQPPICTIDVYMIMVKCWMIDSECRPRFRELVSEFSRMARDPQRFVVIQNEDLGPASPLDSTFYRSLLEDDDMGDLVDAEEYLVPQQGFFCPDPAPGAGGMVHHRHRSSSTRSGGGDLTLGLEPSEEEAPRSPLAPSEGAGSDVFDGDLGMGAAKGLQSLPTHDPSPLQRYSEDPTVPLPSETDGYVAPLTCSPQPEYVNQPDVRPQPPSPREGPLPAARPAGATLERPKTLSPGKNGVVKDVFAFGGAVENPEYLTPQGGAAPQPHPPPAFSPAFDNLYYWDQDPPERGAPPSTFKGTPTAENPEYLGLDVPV
property name: IC50 (µM)
# number only, unit µM dropped from output

# lookup: Receptor tyrosine-protein kinase erbB-2 (Homo sapiens, UniProt P04626) IC50, key = `COc1cc(Nc2c(C#N)cnc3cc4cc(OCCN5CCOCC5)c(OC)cc4cc23)c(Cl)cc1Cl`
2.5
